- System: E. coli MG1655
- Condition details: MG1655, 20 h
No end group written: not given here.
Assignment: determine reported E. coli MIC for the given substances.
Record the value in µM, omitting the unit from your answer.

Query MAIRIIGRLARVRARVVARVRSRLLADDPPEDLLRVARRRKGRRWLFLS-NH2 [AMP #24] yields E. coli MIC of 25.0

Note to self: E. coli MIC recorded for MNNRGPLGRRFKARRKWKKFVAGKMKKKRKRFKGFKKKGGFTPFVKKFV-NH2 [AMP #3] was 12.5

Value of E. coli MIC reported for the substance H-MCFCRYRFFYRRRIRFFKWGPYFYVWFGFPFGRKAFFLSVFRRRFC-NH2 (cysteines drawn unpaired) [AMP #19] is 25.0

Please fill in: E. coli MIC reported for H-MCFFPRRKSKVKVKGGLCRLLFIFFKTTFCFKAKTKKEIKKGTGKKIVR-NH2 (cysteines drawn unpaired) [AMP #18] = 50.0

Kindly note the recorded E. coli MIC for MRRKTPVKWKTFFKALKHKKKIFKKTFEKFKFLAKGPAFLKGFDQKLKS-NH2 [AMP #5] , which is 2.1

// MGWWFPPKTGNGAGKAFKKAAAAKWGGLFLKAAWFANKGEWGGGFPKGY-NH2 [AMP #9] : E. coli MIC value = 25.0

MYLKKFLALKNSLKKLSPFKCAVKSWLKKCAEVTFYSKLLGRRGKKDGN-NH2 (cysteines drawn unpaired) [AMP #6] yielded E. coli MIC of 25.0

GET /value?item= MKAKKWFESLFKTFFKKGKGIYPKSSFEKEKKTDKKKKFGGWVWFKK-NH2 [AMP #16] &field=E. coli MIC returns 6.3

MWIKWKKPRKWGRRLKKKEKEELGDYIYLYCKVYRLFGFLPYFISKKTA-NH2 [AMP #17] yielded E. coli MIC of 12.5

Memo: MEAFKKKPRLPLFKVKLTRFLERARGLGSYRIFEFFKKFGVKKFVSSLR-NH2 [AMP #15] , reported E. coli MIC: 25.0

GET /value?item= MNTTSNMIHRAVQQKRISFRAAKLTVLFLFKRRLLRRLLRHHEN-NH2 [AMP #27] &field=E. coli MIC returns 12.5

----------
- Run description: in vitro
- Condition details: human
No end group written: not given here.
Please respond with reported CC50 at 24 h for every item in the list.

Quick note, CC50 at 24 h for MNTTSNMIHRAVQQKRISFRAAKLTVLFLFKRRLLRRLLRHHEN-NH2 [AMP #27] landed at 75.7 µM

So for MKQPSKTKTHFKYFLLFLKSVKKVAGFKKKKKKYHWRSYKEGSCFRKRT-NH2 [AMP #13] , the logged CC50 at 24 h turned out to be 25.8 µM

Entry MLFGSRAKKYGKEAKQEKSFQYPKSSFVACKKKWKRSKHFFKTFKKKVS-NH2 [AMP #1] — recorded CC50 at 24 h = 113 µM

Measured CC50 at 24 h, MRNFFKKTRLKYKGKKELIKKSRAFGLKTKKRSGFFFPRALKYEEEFY-NH2 [AMP #7] : 133 µM

CC50 at 24 h reported for this substance MNNRGPLGRRFKARRKWKKFVAGKMKKKRKRFKGFKKKGGFTPFVKKFV-NH2 [AMP #3] : 68 µM

----------
- Run description: in vitro
- Condition details: human
No end group written: not given here.
Measurement label: CC50

The reported CC50 of the substance MKLRRRLRTRMVALLVLGVLFLLMLFFIIFLRRMLMRRFRA-NH2 [AMP #26] was > 250 µM

----------
- Tested on: B. subtilis PY79
- Condition details: PY79, 20 h
No end group written: not given here.
Answer each item with its documented B. subtilis MIC.
// note: answer is a bare numeric in µM

The substance identified as MWIKWKKPRKWGRRLKKKEKEELGDYIYLYCKVYRLFGFLPYFISKKTA-NH2 [AMP #17] registered its B. subtilis MIC at 6.3

Entry MAIRIIGRLARVRARVVARVRSRLLADDPPEDLLRVARRRKGRRWLFLS-NH2 [AMP #24] ; B. subtilis MIC = 1.6

// sample MRRKTPVKWKTFFKALKHKKKIFKKTFEKFKFLAKGPAFLKGFDQKLKS-NH2 [AMP #5] , its B. subtilis MIC was 0.5

Field B. subtilis MIC (entry MNTTSNMIHRAVQQKRISFRAAKLTVLFLFKRRLLRRLLRHHEN-NH2 [AMP #27] ) reads 0.4

Form: substance = MKAKKWFESLFKTFFKKGKGIYPKSSFEKEKKTDKKKKFGGWVWFKK-NH2 [AMP #16] ; B. subtilis MIC = 0.8

----------
So I've got a bunch of substances here, and I need their E. coli MIC values.
- Tested on: E. coli MG1655
- Condition details: MG1655, 20 h
No end group written: not given here.
Lab note: write values as number then unit, every time.

Please fill in: E. coli MIC reported for MKQPSKTKTHFKYFLLFLKSVKKVAGFKKKKKKYHWRSYKEGSCFRKRT-NH2 [AMP #13] = 25.0 µM

Just so you know, measured E. coli MIC for MKKKKKGILKQNNKKKKYTLFNRMVVFLFLGFIMIIFVQKYKKVIYHK-NH2 [AMP #29] came out at 12.5 µM

According to the records, this substance MKLRRRLRTRMVALLVLGVLFLLMLFFIIFLRRMLMRRFRA-NH2 [AMP #26] displays E. coli MIC of 100.0 µM

Measured E. coli MIC, H-MCFCFKAGPKICRGLQRKKKKFKYQTSFTKTGFGFLTKPKSPAR-NH2 (cysteines drawn unpaired) [AMP #10] : 50.0 µM

// provenance: paper PMC10632401
